system.under.test: UniProt:P31648
assay.protocol: Inhibition of [3H]GABA uptake at mouse GAT1 expressed in HEK293 cells after 25 mins by scintillation counting analysis
Format: cell-based
run.parameters: read-out: pIC50 (converted)
measured.attribute: log10 of IC50 (log10 of the value in µM)

1) O=C(O)C1CCCN(CCN/N=C/c2cc(F)ccc2-c2ccccc2Cl)C1 (stereo unspecified): 0.09
2) Cc1ccc(-c2ccccc2/C=N/NCCN2CCCC(C(=O)O)C2)cc1 (stereo unspecified): 0.53
3) O=C(O)C1CCCN(CCN/N=C/c2cc(F)ccc2-c2ccc(Cl)cc2)C1 (stereo unspecified): 0.29
4) O=C(O)C1CCCN(CCC/C=C/c2ccccc2-c2ccc(Cl)cc2Cl)C1 (stereo unspecified): -0.11
5) O=C(O)C1CCCN(CCN/N=C/c2ccccc2-c2cccs2)C1 (stereo unspecified): 0.46
6) O=C(O)C1CCCN(CCN/N=C/c2ccccc2-c2ccc(F)cc2F)C1 (stereo unspecified): -0.89
7) O=C(O)C1CCCN(CCN/N=C/c2ccccc2-c2ccccc2)C1 (stereo unspecified): 0.69
8) O=C(O)C1CCCN(CCC/C=C/c2ccccc2-c2ccccc2Cl)C1 (stereo unspecified): 0.55
9) O=C(O)C1CCCN(CCN/N=C/c2ccccc2-c2ccccc2F)C1 (stereo unspecified): -0.28
10) COc1cc(F)ccc1-c1ccccc1/C=N/NCCN1CCCC(C(=O)O)C1 (stereo unspecified): 0.87
11) O=C(O)C1CCCN(CCN/N=C/c2ccccc2-c2ccc(F)c(F)c2)C1 (stereo unspecified): 0.52
